Test system: Lefty1
ASSAY EXPLANATION: Lefty1 binders on small-molecule microarrays, primary screen, biochemical, small-molecule microarray, 635/667 nm fluorescence (AID 1139)
CONDITION: small-molecule microarray binding, fluorescence 635/667; higher = more signal
Note to self: values exactly at -0.01 are T. So composite z-score at or above -0.01 is T, below is F.

stdin: Please indicate if the recorded composite z-score for `CCOC(=O)C[C@H]1[C@H](OC(=O)Cc2ccc3c(c2)OCO3)[C@@H](NC(=O)CC(C)C)c2cc(OCCCO)ccc2N1C(=O)c1ccccc1` meets or exceeds -0.01.
stdout: T

stdin: And `O=C/C=C/c1ccccc1Cl` ?
stdout: F

stdin: And `Cc1ccc(S[C@]2(C(=O)NCCN3CCOCC3)CC(=O)N(C3Cc4ccccc4C3)[C@@H]2c2ccc(CO)cc2I)cc1` ?
stdout: F

stdin: Note, next up: C=CCC(OC(C)=O)[C@@H]1[C@@H](N(Cc2cccc3ccccc23)C(=O)Cc2ccc(F)cc2)c2cc(OCCCO)ccc2N1C(=O)Cc1ccc2ccccc2c1 (some centres undefined)
stdout: F

stdin: One more compound: `CO[C@@H]1COC(=O)[C@@H]2CCCN2C(=O)CC=C[C@@H](C)[C@H](OC)COC(=O)[C@@H]2CCCN2C(=O)CC=C[C@H]1C`
stdout: T

stdin: Input C=CCC(OC(C)=O)[C@@H]1[C@@H](N(Cc2cc3ccccc3o2)C(=O)c2ccc(C)cc2)c2cc(OCCCO)ccc2N1C(=O)c1ccc2ccccc2n1 (some centres undefined)
stdout: F

stdin: Also need `Cc1ccc(S[C@]2(C(=O)NC(C)C)CC(=O)N(C3Cc4ccccc4C3)[C@@H]2c2ccc(CO)cc2)cc1` , thanks.
stdout: T

stdin: Here is the next compound: `CO[C@@H]1COC(=O)[C@H](C)NC(=O)CC=C[C@@H](C)[C@H](OC)COC(=O)[C@H](C)NC(=O)CC=C[C@H]1C`
stdout: T

stdin: Similarly, `O=C1O[C@@H](c2ccccc2)[C@@H](c2ccccc2)N2[C@@H](c3ccccc3OCCO)[C@]3(C(=O)Nc4ccc(C#CC5=CCCCC5)cc43)[C@@H](C(=O)O)[C@H]12` ?
stdout: T

stdin: `CC(C)[Si](OCC[C@H]1O[C@]2(C(=O)N(Cc3ccccc3)c3ccccc32)[C@@H](C)[C@@H]1[Si](C)(C)O)(C(C)C)C(C)C` , same question.
stdout: T

stdin: Moving on to C[C@@H]1NC(=O)[C@H](Cc2ccccc2)NC(=O)[C@@]23C(=O)N[C@@H](Cc4ccccc4)C2[C@H](C)[C@@]2(C)O[C@H]2C3/C=C/C/C=C\CNC1=O (some centres undefined)
stdout: T

stdin: Then what about the compound CC[C@H]1C2=C3C(CC[C@H]4C(OC)OC[C@](C)([C@@H]34)N(C(=O)OC(C)(C)C)C2)C(CO)C1CO (some centres undefined) ?
stdout: F

stdin: Now this one: `O=C1O[C@H](c2ccccc2)[C@H](c2ccccc2)N2[C@H]1[C@@H](C(=O)Nc1nc3ccccc3s1)[C@]1(C(=O)Nc3ccc(C#CC4(O)CCCCCC4)cc31)[C@H]2c1ccc(O)cc1`
stdout: T

----------
ASSAY EXPLANATION: PSAC antagonists in infected red cells, primary screen, cell-based, P. falciparum Indochina, OD700, 1 h (AID 1154)
CONDITION: P. falciparum Indochina infected RBC osmotic lysis, higher = more signal, called active from +8 up or from −8 down
Activity calls are given as the source filed them.
RECORDED METRIC: z-score

stdin: Give its z-score value. Item: `C=C(COC)/C(=C/C[C@H](OC(C)=O)c1ccc(OCCO)cc1)c1cnc2ccccc2c1`
stdout: 13.5 (active)

stdin: Queued: `O=[N+]([O-])c1ccc(C[n+]2ccc3ccc(O)cc3c2)o1`
stdout: 1.08 (inactive)

stdin: Please answer likewise for CC(C)[C@H]1NC(=O)[C@@]23C(=O)N[C@@H](Cc4ccccc4)C2[C@H](C)[C@@]2(C)O[C@H]2C3/C=C/C/C=C\CNC(=O)[C@H](C)NC1=O (some centres not stated)
stdout: 3.36 (inactive)

stdin: Do the same for `C=CCNC(=O)[C@H]1[C@@H]2C(=O)O[C@@H](c3ccccc3)[C@@H](c3ccccc3)N2[C@@H](c2ccccc2OCCO)[C@]12C(=O)N(C(=O)OCCOC)c1ccc(C#CCC(C(=O)OC)C(=O)OC)cc12` please
stdout: 2.93 (inactive)

stdin: Also need C=CCC(OC(C)=O)[C@@H]1[C@@H](N(Cc2cccc3ccccc23)C(=O)c2ccc(C)cc2)c2cc(OCCCO)ccc2N1C(=O)c1ccc(-c2ccccc2)cc1 (some centres not stated) , thanks.
stdout: 0.441 (inactive)

stdin: Also, O=C1OCCC=C[C@H]2OC34C=CCN(Cc5ccccc5)C(=O)[C@H]3N(CCO)C(=O)[C@@H]4C12 (some centres not stated) please.
stdout: 1.07 (inactive)

stdin: What would you report for `C=CC[C@]1(C(=O)OC)N=C(c2ccc(OCCCO)cc2)O[C@H]1c1ccccc1CN=[N+]=[N-]` ?
stdout: 21.2 (active)

----------
ASSAY EXPLANATION: small-molecule microarray binders of probe aCHRDL2, primary screen, biochemical, biotinylated probe, 635/667 nm fluorescence (AID 1100)
CONDITION: higher = more signal
// classify(record): look up composite z-score in ranges low value: < 0.3; medium value: ≥ 0.3 and < 0.8; high value: ≥ 0.8

stdin: Quick check: band for `C=CC[C@]1(C(=O)O)N=C(c2ccc(OCCCO)cc2)O[C@H]1c1ccccc1`
stdout: high value

stdin: Subsequent entry: `CC(=O)NCCCC[C@@H]1NC(=O)[C@H]2C[C@@H](C(=O)NCCCCCCN(C)C)[C@@H](c3cccc(OCCO)c3)N2C1=O`
stdout: medium value

stdin: Check `C=CCOC(=O)[C@@H]1[C@H]2C(=O)O[C@H](c3ccccc3)[C@H](c3ccccc3)N2[C@H](c2ccc(OCCOC(=O)[C@H]3C[C@H]4C(=O)N5CCC[C@H]5C(=O)N4[C@H]3c3ccc(O)cc3)cc2)[C@@]12C(=O)Nc1ccccc12` too.
stdout: medium value

stdin: And `COc1ccc([Si](C)(C)[C@@H]2[C@@H](CC(=O)N(CCO)Cc3ccccc3)O[C@]3(C(=O)N(Cc4cccc(N5CCC5=O)c4)c4ccccc43)[C@H]2C)cc1` ?
stdout: low value

stdin: What do we get for `CC(C)(C)OC(=O)CC[C@@]1(C(=O)NCc2ccccc2)N=C(c2ccc(OCCCO)cc2)O[C@@H]1c1ccccc1` ?
stdout: high value

stdin: Continue with C[C@H]1NC(=O)[C@@H](C)NC(=O)[C@@]23C(=O)N[C@@H](Cc4ccccc4)C2[C@H](C)[C@@]2(C)O[C@H]2C3/C=C/C/C=C\CNC1=O (some centres undefined)
stdout: low value

stdin: // same read-out, input: `O=C(N1CCCCC1)[C@@]1(CCS(=O)(=O)c2ccccc2)N=C(c2ccc(OCCCO)cc2)O[C@H]1c1ccccc1`
stdout: high value

stdin: Another compound: `CCCC=C(CCC)[C@@H](NC(=O)c1ccc(C(F)(F)F)cc1)c1ccccc1`
stdout: medium value

stdin: Param item: `CCCC[C@@H]1C[C@H]1[C@@H](NC(=O)c1cccs1)c1ccc(Cl)cc1`
stdout: high value

stdin: Item: C=CCC(OC(C)=O)[C@@H]1[C@@H](N(Cc2cccc3ccccc23)C(=O)c2ccc(C)cc2)c2cc(OCCCO)ccc2N1C(=O)c1ccc(-c2ccccc2)cc1 (some centres undefined)
stdout: medium value

stdin: Okay, and `CC(=O)NCCCC[C@@H]1NC(=O)[C@@H]2C[C@H](C(=O)NCCCCCCN(C)C)[C@H](c3ccc(O)cc3)N2C1=O` ?
stdout: low value

stdin: Would you mind doing `Cc1ccc(S[C@]2(C(=O)NCCCN(C)C)CC(=O)N(Cc3ccccc3)[C@@H]2c2ccc(CO)cc2I)cc1` as well?
stdout: high value

stdin: Request: `CO[C@@H]1COC(=O)CC=C[C@H](C)COC(=O)[C@H](Cc2ccccc2)NC(=O)CC=C[C@H]1C`
stdout: low value

----------
ASSAY EXPLANATION: MM1S cell viability effects, profiling panel, calcein-AM fluorescence, 48 h, basal (AID 1165);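 note: viability of MM1S multiple myeloma cells under basal unstimulated conditions; test concentration not given here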
CONDITION: higher = more signal
RECORDED METRIC: z-score
// no unit string in output, number only

stdin: Bench note: what z-score did `CO[C@H]1O[C@H](CO)[C@@H](OC(=O)Nc2ccccc2)[C@H](OC(=O)Nc2ccc3c(c2)OCO3)[C@@H]1OC(=O)Nc1ccc2c(c1)OCO2` show?
stdout: -1.51

stdin: Same question for `C=CC[C@]1(C(=O)OC)N=C(c2ccc(OCCCO)cc2)O[C@H]1c1ccccc1CN=[N+]=[N-]` please.
stdout: -2.04

stdin: Likewise for `CCC#CCN(Cc1ccccc1Br)[C@H](/C=C/c1ccccc1)[C@@H](O)Cc1ccccc1` ?
stdout: -0.227

stdin: Same read-out for `COc1ccc([Si](C)(C)[C@H]2[C@H](CCO)O[C@@]3(C(=O)N(Cc4ccc(N5CCCCC5=O)cc4)c4ccccc43)[C@@H]2C)cc1` ?
stdout: -2.59

Reference source for all entries: PubChem BioAssay
